test: In Vitro GIRK Thallium Flux Assay (2.5 minutes): Human Embryonic Kidney (HEK-293) cell lines co-expressing rat mGlu receptors 2, 3, 4, 6, 7 or 8 and G protein-coupled inwardly-rectifying potassium (GIRK) channels_ENREF_54 were grown in Growth Media containing 45% DMEM, 45% F-12, 10% FBS, 20 mM HEPES, 2 mM L-glutamine, antibiotic/antimycotic, non-essential amino acids, 700 μg/ml G418, and 0.6 μg/ml puromycin at 37° C. in the presence of 5% CO2. All cell culture reagents were purchased from Invitrogen Corp. (Carlsbad, Calif.) unless otherwise noted. Compound activity at the group II (mGlu2 and mGlu3) mGlus was assessed using thallium flux through GIRK channels. Briefly, cells were plated into 384-well, black-walled, clear-bottomed poly-D-lysine-coated plates at a density of 15,000 cells/20 μL/well in DMEM containing 10% dialyzed FBS, 20 mM HEPES, and 100 units/mL penicillin/streptomycin (assay media). Plated cells were incubated overnight at 37° C. in the presence of 5% CO2. The following day, the medium was exchanged from the cells to assay buffer [Hanks' balanced salt solution (Invitrogen) containing 20 mM HEPES, pH 7.3] using an ELX405 microplate washer (BioTek), leaving 20 μL/well, followed by the addition of 20 μL/well FluoZin2-AM (330 nM final concentration) indicator dye (Invitrogen; prepared as a stock in DMSO and mixed in a 1:1 ratio with Pluronic acid F-127) in assay buffer. Cells were incubated for 1 h at room temperature, and the dye exchanged to assay buffer using an ELX405, leaving 20 μL/well. Test compounds were diluted to 2 times their final desired concentration in assay buffer (0.3% DMSO final concentration). Agonists were diluted in thallium buffer [125 mM sodium bicarbonate (added fresh the morning of the experiment), 1 mM magnesium sulfate, 1.8 mM calcium sulfate, 5 mM glucose, 12 mM thallium sulfate, and 10 mM HEPES, pH 7.3] at 5 times the final concentration to be assayed. Cell plates and compound plates were loaded onto a kinetic imaging plate reader (FDSS 6000 or 7000; Hamamatsu Corporation, Bridgewater, N.J.). Appropriate baseline readings were taken (10 images at 1 Hz; excitation, 470±20 nm; emission, 540±30 nm) and test compounds were added in a 20 μL volume and incubated for either 2.5 min or 60 min as indicated before the addition of 10 μL of thallium buffer with or without agonist. After the addition of agonist, data were collected for approximately an additional 2.5 min. Data were analyzed using Excel (Microsoft Corp, Redmond, Wash.). The slope of the fluorescence increase beginning 5 s after thallium/agonist addition and ending 15 s after thallium/agonist addition was calculated, corrected to vehicle and maximal agonist control slope values, and plotted in using either XLfit (ID Business Solutions Ltd) or Prism software (GraphPad Software, San Diego, Calif.) to generate concentration-response curves. Potencies were calculated from fits using a four-point parameter logistic equation. For concentration-response curve experiments, compounds were serially diluted 1:3 into 10 point concentration response curves and were transferred to daughter plates using an Echo acoustic plate reformatter (Labcyte, Sunnyvale, Calif.). Test compounds were applied and followed by EC80 concentrations of glutamate.; conditions: HEK293, 2.5 min
Quick list: EC50 per entry.
observable: EC50

[[record]]
smiles_code = "Fc1ccc(-c2csc(-c3ccccc3)n2)cc1"
observable = "EC50"
value_measured = "> 30 µM"

[[record]]
smiles_code = "Fc1ccc(-c2cccc(-c3csc(-c4ccccc4)n3)c2)cc1"
observable = "EC50"
value_measured = "1.21 µM"

[[record]]
smiles_code = "O/N=C\\c1cc(-c2cccc(-c3csc(-c4ccccc4)n3)c2)ccc1F"
observable = "EC50"
value_measured = "> 30 µM"

[[record]]
smiles_code = "c1ccc(-c2cccc(-c3nc(-c4cccs4)n(-c4ccccc4)n3)c2)cc1"
observable = "EC50"
value_measured = "4.29 µM"

[[record]]
smiles_code = "C(=C\\c1nc(-c2cccc(-c3ccccc3)c2)cs1)/c1ccccc1"
observable = "EC50"
value_measured = "> 10 µM"

[[record]]
smiles_code = "Fc1ccccc1-c1cccc(-c2nsc(-c3ccccc3)n2)c1"
observable = "EC50"
value_measured = "> 10 µM"

[[record]]
smiles_code = "Fc1ccc(-c2cccc(-c3csc(-c4cc5ccccc5o4)n3)c2)cc1"
observable = "EC50"
value_measured = "3.32 µM"

[[record]]
smiles_code = "COc1ccc(-n2nc(-c3cccc(-c4ccccc4)c3)nc2-c2ccccc2)cc1"
observable = "EC50"
value_measured = "2.96 µM"

[[record]]
smiles_code = "Fc1ccc(-c2cccc(-c3nsc(-c4ccoc4)n3)c2)cc1"
observable = "EC50"
value_measured = "> 10 µM"

[[record]]
smiles_code = "Fc1ccccc1-c1cccc(-c2csc(-c3ccccc3)n2)c1"
observable = "EC50"
value_measured = "> 30 µM"

[[record]]
smiles_code = "Fc1ccc(-c2cccc(-c3csc(-c4ccccc4)c3)c2)cc1"
observable = "EC50"
value_measured = "> 10 µM"

